Test system: SF-268
Test: NCI tumour cell line growth inhibition, 48 h
Counter-ions that a name gives are not always drawn. Active and inactive are the calls of the source. Cut-off read from the data, not from the text of the source: active = GI50 up to about 1.1 µM and inactive = higher. Residues, ends and D or L forms follow the SMILES beside them. *: point of attachment. Tfa = O=C(C(F)(F)F)*
Possible outcomes: true (1) for active, false (0) for inactive

MOLECULE	CLASS_LABEL
NCCCCNCCCN1CC1	true (1)
COc1ccc2nc3c(nc2c1)C(C)(C)C=C3c1ccc(Br)cc1	false (0)
CO[C@H]1C[C@H](n2cc(C)c(=O)[nH]c2=O)O[C@@H]1CO	false (0)
CN(C)CCNC(=O)c1ccc(Cl)c2ccc(-c3ccccc3)nc12	false (0)
CC1(C)O[C@@H](CP(c2ccc3ccccc3c2)c2ccc3ccccc3c2)[C@H](CP(c2ccc3ccccc3c2)c2ccc3ccccc3c2)O1	false (0)
O=C(O)CC(NC(=O)C(F)(F)F)C(=O)NC(Cc1ccc(O)cc1)C(=O)O (stereo not drawn) (Tfa-Asp-Tyr-OH; configuration not given here)	false (0)
O=C(COc1ccccc1)NS(=O)(=O)c1ccccc1	false (0)
COc1cc2c(c(OC)c1OC)-c1ccc(SC)c(=O)cc1C(CO)C2 (centres undefined)	true (1)
N=C(N)N/N=C/c1c(-c2ccc(Cl)cc2)nc2sccn12	false (0)
CC(C)[C@@H]1NC(=O)[C@H]2N=C(O[C@@H]2C)[C@@H]2CCCN2C(=O)[C@H](Cc2ccccc2)NC(=O)[C@@H]2CSC(=N2)[C@@H](Cc2ccccc2)NC(=O)[C@@H]2CSC1=N2	false (0)
CC(C)/C(Cl)=N/OC(=O)Nc1ccc(Cl)c(Cl)c1	false (0)
CCn1cc(C(=O)O)c(=O)c2cc3c(cc21)S(=O)(=O)CC3	false (0)
C[C@@H](CN1CC(=O)NC(=O)C1)N1CC(=O)NC(=O)C1	false (0)
O=S(=O)(O)C1=C2Sc3ccccc3N=C2c2ccccc2C1	false (0)
CN(C(=O)C12C3C4C1C1C2C3C41C(=O)C(C)(C)C)C(C)(C)C (centres undefined)	false (0)
Cc1ccc(S(=O)(=O)N/N=C/c2oc(-c3ccccc3Cl)c(-c3ccccc3Cl)c2[N+](=O)[O-])cc1	false (0)
O=[N+]([O-])/C(C(Cl)=C(Cl)Cl)=C(/Nc1ccccc1)SCc1ccccc1	false (0)
COC(=O)C12OCC34C(CC5C(C)C6=CC(=O)OC6=CC5(C)C3C(O)C1O)OC(=O)C(O)C24 (centres undefined)	true (1)
O=C1C=CC2(C=C1)O[C@H](CCc1ccccc1)[C@@H](CCc1ccccc1)O2	false (0)

* * *

System: SNB-19
Assay: NCI tumour cell line growth inhibition, 48 h
Active and inactive are the calls of the source. No stated cut-off is given here; in the data, active = GI50 up to about 1.1 µM and inactive = higher.
Possible outcomes: y for active, n for inactive

COMPOUND	CLASS_LABEL
CN(C)CCNc1ccc2ncnc3c2c1C(=O)c1ccccc1-3	y
COc1ccc(CNc2nc(NCc3ccc(OC)c(OC)c3)nc(NC3CCCCC3)n2)cc1	n
CCCCOC(=O)C(O)Cc1ccoc1 (centres undefined)	n
O=C(/C=C(\S/C=C(/c1ccccc1)N1CCn2c(C(=O)c3ccccc3)c(C(=O)c3ccccc3)c(C(=O)c3ccccc3)c21)C(=O)c1ccccc1)c1ccccc1	n
Cc1cc(C(=O)CSC(=S)SC(C)(C)C)ccc1Cl	n
Cc1cn([C@@H]2O[C@H](CO[Si](C)(C)C(C)(C)C)[C@]3(O[C@H]3C(=O)NO)[C@H]2O[Si](C)(C)C(C)(C)C)c(=O)[nH]c1=O	n
COc1cc(S(=O)(=O)Nc2ccc(-c3csc(N4C(=O)C(C)SC4c4cccc(Oc5ccccc5)c4)n3)cc2)ccc1Cl (centres undefined)	n
O=C1/C(=C/c2ccc([N+](=O)[O-])cc2)Oc2cc(O)ccc21	n
CC(=O)c1c(C)[n+]([O-])c2cc(Cl)c(Cl)cc2[n+]1[O-]	n
